Target: Pancreatic triacylglycerol lipase (Homo sapiens, UniProt P16233)
Sequence (P16233 whole entry): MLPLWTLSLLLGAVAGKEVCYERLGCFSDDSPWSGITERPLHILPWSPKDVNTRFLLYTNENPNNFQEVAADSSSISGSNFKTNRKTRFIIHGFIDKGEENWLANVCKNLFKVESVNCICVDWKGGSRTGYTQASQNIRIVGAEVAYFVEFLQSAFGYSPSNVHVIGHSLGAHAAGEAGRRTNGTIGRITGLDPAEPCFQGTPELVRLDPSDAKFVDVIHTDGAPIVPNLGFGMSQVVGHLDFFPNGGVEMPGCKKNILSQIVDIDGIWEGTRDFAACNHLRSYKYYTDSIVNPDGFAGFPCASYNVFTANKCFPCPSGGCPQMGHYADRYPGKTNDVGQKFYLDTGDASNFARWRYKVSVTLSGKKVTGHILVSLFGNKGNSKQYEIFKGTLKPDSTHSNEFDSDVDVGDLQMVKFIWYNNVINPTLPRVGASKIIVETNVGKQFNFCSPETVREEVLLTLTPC
Listing of recorded pIC50 by entry.
// pIC50: -log10(molar conc.)

[in] Look up pIC50 for this molecule: COc1cc2[nH]c3c4c(c(C)cc3c2cc1OC)OC(C)(C)C=C4
[out] 3.37

[in] Look up pIC50 for this molecule: CC(C)=CCCC1(C)C=Cc2c(c(C)cc3c2[nH]c2ccccc23)O1 (configuration not stated)
[out] 4.75

The origin of these recorded values is ChEMBL document CHEMBL3872244.
